Entry source: the nanobody polyreactivity screen of Harvey et al. (2022)

Assay name: yeast display, Sf9 membrane polyspecificity reagent, FACS + sequencing; frameworks hold sequencing errors
Measured metric: polyreactivity (PSR sort gate)

Some solved entries appear below for comparison.
Ordered residues: QVQLVESGGGLVQAGGSLRLSCAASGRIFYINAMGWYRQAPGKEMELVAAITGSVGSTYYADSVKGRFTISRDNAKNTVYLLMNSQKPEDTAVYYCAASDQPYNGGDGDYWGQGTQVTVSS
polyreactivity (PSR sort gate): low polyreactivity
//
Ordered residues: QVQLVESGGGLVQAGGILRLSCAASGSTFESNTMGGYRQAPGKERELVAAISYSGGRTYYADSVKGRFTISRDNAKNTVYLQMNSLKPEDTAVYYCAARWSVSYHYWGQGTQVTVSS
polyreactivity (PSR sort gate): high polyreactivity
//
Ordered residues: QVQLVESGGGLVQAGVSLRISCAAAGFTFERYAMGWYRQAPGKERELVATISRRGGSTNYADSVKGRFTISRDNAKNTVYLQMNSLKPEDTAVYYCARTLYRGKSYHVHSKYDYWGQGTQVTVSS
polyreactivity (PSR sort gate): high polyreactivity
//
Ordered residues: QVQLVESGGGLVQAGGSLRLSCAASGRTFVRNAMGWYRQAPGKERELVAAINSGGSTNYADSLKGRFTISRDNPKNTVYLQMNSLKPEDTAVYYCNAPRQHVGNGNYWGQGTQVTVSS
polyreactivity (PSR sort gate): low polyreactivity
//
Ordered residues: QVQLVESGGGLVQAGGSLRLSCAASGIIFSSSAMGWYRQAPGKEREVVAAITSCGNTNYADSVKGRFTISRDNAKNTVYLQMNSLNPEDTAVYYCNAETSFVWLAWHPYGFGDWGQGTQVTVSS
polyreactivity (PSR sort gate): low polyreactivity
//
Ordered residues: QVQLVESGGGLVQAGGSLRLSCAASGRTLYRYTMGWYRQAPGKERELVAAISRGGSTYYADSVKGRFTISRDNAKNTVYLQMNSLKPEDTAVYYCAAVYSYTSWQTWWPEYDYWGQGTQVTVSS
polyreactivity (PSR sort gate): high polyreactivity
//
Ordered residues: QVQLVESGGGLVQAGGSLRLSCAASGSIFFYAMGWYIQAPGKERQLVAAISWRGGSTYADSVKGRFTISRDNAKKTVYLQMKSLKPEDTAVYYCAKDWVRSGAVIDYDYWGQGTQVTVSS
polyreactivity (PSR sort gate): high polyreactivity
//
Ordered residues: QVQLVESGGGLVQAGGSLRLSCAASGRIFGYYAMGWYRQAPGKEREWVAAMSTNGGTTYYAYSVKGRFTISRDNAKNTVYLQMNSLKPEDTAVYYCAATYTVPGHARYDYWGQGTQVTVSS
polyreactivity (PSR sort gate): low polyreactivity
//
Ordered residues: QVQRVESGGGLVQAGGSLRLSCAATGLIFSPYAMGWYRQAPGKEREFVAGITWRGGNTYYADSVKGRFTISRDNAKNTVYLQMNSLNPEDTAVYYCAAYERKFYTVSRWYKLDYWGQGTQVTVSS
polyreactivity (PSR sort gate): high polyreactivity
//
Ordered residues: QVQLVESGGGLVQAGGSLRLSCAASGSTFWFNAMGWYRQAPGKERELVAAISSTGSTNYADSVKGRFTISRDNSKNTVYLQMNSLKPEDTAVYYCATQEGPHKLDPRGYYWGQGTQVTVSS
polyreactivity (PSR sort gate): low polyreactivity

// input: 4 sequences below; output: polyreactivity (PSR sort gate) for each
1. QVQIVESGGGLVQAGGSLRISCAASGRTFRWYAMGWYRQAPGKERELVASITWSGGSTYYADSVKGRFTISRDNAKNSVYLQMNSLKPEDTAVYYCAAEKRYTYVGGPFNYWGQGIQVTVSS
2. QVQLVESGGGLVHAGGSLRLSCAASGITFVYYAMGWYRQAPGKERELVAAIDDTGTTYYADSVKGRFTISRDNAKNTVYLQMNSLKPEDTAVYYCAADDWGWFFGGGDYWGQGTQVTVSS
3. QVQLVESGGGLVQAGGSLRLSCAASGRIFNLNAMGWYRQAPGKERELVAAISKSGTRTYYADSVKGRFTISRDNAKNTVYLQMNSLKQEDTAVYYCAAEALYYDRLGWVYLRYDYWGQGTQVTVSS
4. QVQLVESGGGLVQAGGSLRLSCAASGITFAYYGMGWYRQAPGKERELVAAISWTGSSTYYADSVKGRFTISRDNAQNTVYLQMNSLKPEDTAVYYCAARQRYRYDYWGQGTQVTVSS

1: high polyreactivity; 2: high polyreactivity; 3: high polyreactivity; 4: high polyreactivity
